Kindly supply the reported abundance fitness values for the records listed here.
B1: F-BAR and double SH3 domains protein 1, residues 467 to 528; numbered along this chain, Q86WN1 (parent)
chain: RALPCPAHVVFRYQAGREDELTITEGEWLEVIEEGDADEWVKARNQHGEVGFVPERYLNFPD

- Variants of: B1
- Assay Comment: abundance fitness (aPCA) (normalised: wild type 0, dead -1); higher = more abundant; growth selection in yeast, the domain comes from the species named
- Conditions: Homo sapiens
I'd appreciate a reply containing only the number, no unit.

# input State the recorded abundance fitness for this entry: R12W
# output -0.455

# input Now consider G16T and answer again.
# output -0.012

# input Now consider T22Q and answer again.
# output -0.581

# input Now consider K42L and answer again.
# output -0.166

# input Now consider E27P and answer again.
# output -0.811

# input Now consider I23E and answer again.
# output -0.833

# input Now consider G35D and answer again.
# output -0.211

# input Now consider E34L and answer again.
# output -0.028

# input Now consider D36Y and answer again.
# output -0.171

# input Now consider V9T and answer again.
# output -0.531

# input Now consider L3M and answer again.
# output -0.121

# input Now consider D38W and answer again.
# output -0.154

# input Now consider E33D and answer again.
# output -0.156

# input Now consider D36G and answer again.
# output -0.049

# input Now consider L21F and answer again.
# output -0.588

# input Now consider R12C and answer again.
# output -0.056

# input Now consider I32Y and answer again.
# output -0.063

# input Now consider I32W and answer again.
# output -0.276

# input Now consider V10K and answer again.
# output -0.094

# input Now consider E39A and answer again.
# output -0.016

# input Now consider I23S and answer again.
# output -0.719

# input Now consider R17T and answer again.
# output -0.164

# input Now consider E34G and answer again.
# output -0.17

# input Now consider E33I and answer again.
# output -0.785

# input Now consider V9L and answer again.
# output -0.835

# input Now consider A43P and answer again.
# output -0.865

# input Now consider E34V and answer again.
# output -0.004

# input Now consider A15M and answer again.
# output -0.79

# input Now consider F11W and answer again.
# output -0.075

# input Now consider D36P and answer again.
# output 0.13

# input Now consider W40E and answer again.
# output -0.196

# input Now consider G26Y and answer again.
# output -0.564

# input Now consider A15L and answer again.
# output -0.718

# input Now consider P6G and answer again.
# output -0.209

# input Now consider E27F and answer again.
# output -0.795

# input Now consider V41H and answer again.
# output -0.929

# input Now consider T22V and answer again.
# output -0.898

# input Now consider K42A and answer again.
# output -0.511

# input Now consider G35A and answer again.
# output -0.045

# input Now consider C5P and answer again.
# output -0.857

# input Now consider R17S and answer again.
# output -0.016

# input Now consider E30R and answer again.
# output -0.474

# input Now consider R1D and answer again.
# output -0.298

# input Now consider V10H and answer again.
# output -0.158

# input Now consider I32M and answer again.
# output -0.162

# input Now consider G16W and answer again.
# output -0.245
